- Tested on: Mus musculus
- ASSAY: Neurotoxicity in ip dosed CF1 albino mouse after 0.25 hrs by rotarod test
- Assay type: toxicity, organism-based
- MEASUREMENT_PARAMETERS: in vivo
Hi there, I'd appreciate the recorded TD50 (median neurotoxic dose) for every entry that follows.
Numbers only, in mg/kg.

Solved cases (2 shown):
COMPOUND | READING_UNIT | TD50 (median neurotoxic dose)
CC1CCCN(CCCCCCCOc2ccc(Cl)cc2)C1.O=C(O)C(=O)O (centres undefined) | mg/kg | 48.28
CC1CCCN(CCCCCCOc2ccc(Cl)cc2)C1.O=C(O)C(=O)O (centres undefined) | mg/kg | 50.4

Hi, could you look up TD50 (median neurotoxic dose) for each item in my list?
1. Clc1ccc(OCCCCCCN2CCCCCC2)cc1.O=C(O)C(=O)O
2. CC1CCN(CCCCCCOc2ccc(Cl)cc2)CC1.O=C(O)C(=O)O

Result:
36.2
40.77
